assayName: solvent given as SMILES
conditionSet: in CCNC(C)=O
Could you label it T if measured solvation free energy, 298 K is -3 kcal/mol or higher, and F otherwise?

# querySmiles, classAssignment
data = [
    ("C1=CCCCC1", "F"),
    ("C1CCCCC1", "F"),
    ("c1ccccc1", "F"),
    ("ClCCl", "F"),
    ("Cc1ccccc1", "F"),
    ("CC=O", "T"),
    ("CCC(C)C", "T"),
    ("C=CCCC", "T"),
    ("CC(C)OC(C)C", "F"),
]

###

assayName: solvent given as SMILES
conditionSet: in OCCCOCCCO
experimentalReadout: solvation free energy, 298 K (kcal/mol)

# querySmiles, observedResult
data = [
    ("C#CC", -1.53),
    ("O=C=O", -0.25),
    ("S", -1.24),
    ("C=C", 0.06),
]

###

assayName: solvent given as SMILES
conditionSet: in CCBr
List of solvation free energy, 298 K values.

# querySmiles, measurementUnits, solvation free energy, 298 K
rows = [
    ("C1CCCCC1", "kcal/mol", -4.31),
    ("CCCC(C)C", "kcal/mol", -3.88),
    ("CC(C)CC(C)C", "kcal/mol", -4.27),
    ("Cc1ccccc1", "kcal/mol", -5.44),
]

###

In this section we review reported solvation free energy, 298 K values for a set of molecules.
assayName: solvent given as SMILES
conditionSet: in CC1COC(=O)O1

# querySmiles, solvation free energy, 298 K / kcal/mol
records = [
    ("CCCC(C)C", -1.98),
    ("CC(C)CC(C)C", -2.21),
    ("Cc1ccccc1", -4.43),
    ("FS(F)(F)(F)(F)F", 0.98),
    ("C1CCCCC1", -2.65),
    ("O=C=O", -0.75),
    ("c1ccccc1", -3.88),
    ("S", -1.49),
    ("C=C", -0.17),
    ("C#CC", -2.04),
    ("O=S=O", -3.16),
]

###

assayName: solvent given as SMILES
conditionSet: in Fc1ccccc1
experimentalReadout: solvation free energy, 298 K (kcal/mol)

# querySmiles, experimentalReadout, observedResult
records = [
    ("C1CCCCC1", "solvation free energy, 298 K", -4.12),
    ("O=C(C(=O)c1ccccc1)c1ccccc1", "solvation free energy, 298 K", -12.4),
    ("O=C1c2ccccc2C(=O)c2c(Cl)cccc21", "solvation free energy, 298 K", -14.6),
    ("Cc1ccccc1", "solvation free energy, 298 K", -5.24),
    ("CCCC(C)C", "solvation free energy, 298 K", -3.63),
    ("CC(=O)Nc1ccc(O)cc1", "solvation free energy, 298 K", -12.1),
    ("O=O", "solvation free energy, 298 K", 0.56),
    ("CC(C)CC(C)C", "solvation free energy, 298 K", -4.04),
]

###

assayName: solvent given as SMILES
conditionSet: in CCCCCCCCCCCCO

# querySmiles, solvation free energy, 298 K / kcal/mol
rows = [
    ("ClCCl", -2.91),
    ("CC(C)CC(C)C", -3.49),
    ("C1CCCCC1", -3.7),
    ("c1ccccc1", -3.74),
]

###

assayName: solvent given as SMILES
conditionSet: in CCN(CC)C(C)=O
Is solvation free energy, 298 K at least -4 kcal/mol? Then Criterion met. If not, Criterion not met.

# querySmiles, classAssignment
records = [
    ("CC(C)OC(C)C", "Criterion met"),
    ("ClCCl", "Criterion not met"),
    ("C=CCCC", "Criterion met"),
    ("c1ccccc1", "Criterion not met"),
    ("C1=CCCCC1", "Criterion met"),
    ("C1CCCCC1", "Criterion met"),
    ("CC=O", "Criterion met"),
    ("Cc1ccccc1", "Criterion not met"),
]

###

assayName: solvent given as SMILES
conditionSet: in CC(C)CCO
Lab note: anything with solvation free energy, 298 K below -9 kcal/mol is marked yes; values at -9 kcal/mol or higher are marked no.

# querySmiles, classAssignment
data = [
    ("CC(=O)Oc1ccccc1C(=O)O", "yes"),
    ("O=c1c2ccccc2sc2ccccc12", "yes"),
    ("COC", "no"),
    ("Cc1ccccc1", "no"),
    ("O=C(C(=O)c1ccccc1)c1ccccc1", "yes"),
    ("c1ccc2c(c1)Cc1ccccc1O2", "yes"),
    ("CN(C)C(=O)Nc1ccc(Cl)cc1", "yes"),
    ("CCOC(=O)c1ccc(N)cc1", "yes"),
    ("C1CCCCC1", "no"),
]

###

Readings of solvation free energy, 298 K for the listed molecules
assayName: solvent given as SMILES
conditionSet: in ClC(Cl)(Cl)Cl
experimentalReadout: solvation free energy, 298 K

# querySmiles, experimentalReadout, observedResult
measured = [
    ("CC(C)[N+](=O)[O-]", "solvation free energy, 298 K", "-4.57 kcal/mol"),
    ("Cc1ccccc1", "solvation free energy, 298 K", "-5.18 kcal/mol"),
    ("c1cc2c3c(cccc3c1)CC2", "solvation free energy, 298 K", "-9.63 kcal/mol"),
    ("CN(C)C(=O)Nc1ccc(Cl)c(Cl)c1", "solvation free energy, 298 K", "-12.4 kcal/mol"),
    ("O=C(C(=O)c1ccccc1)c1ccccc1", "solvation free energy, 298 K", "-12 kcal/mol"),
    ("CCOCOCC", "solvation free energy, 298 K", "-4.97 kcal/mol"),
    ("O=C1CCCCC1", "solvation free energy, 298 K", "-6.23 kcal/mol"),
    ("COC(=O)OC", "solvation free energy, 298 K", "-4.27 kcal/mol"),
    ("CCCCI", "solvation free energy, 298 K", "-5.57 kcal/mol"),
    ("ClCCl", "solvation free energy, 298 K", "-3.36 kcal/mol"),
    ("CC(C)OC(C)C", "solvation free energy, 298 K", "-4.23 kcal/mol"),
    ("c1ccc2c(c1)-c1cccc3cccc-2c13", "solvation free energy, 298 K", "-12.7 kcal/mol"),
    ("C1CCCCC1", "solvation free energy, 298 K", "-4.44 kcal/mol"),
    ("[2H]O[2H]", "solvation free energy, 298 K", "-1.14 kcal/mol"),
    ("ClCBr", "solvation free energy, 298 K", "-3.93 kcal/mol"),
    ("CCCI", "solvation free energy, 298 K", "-4.97 kcal/mol"),
    ("II", "solvation free energy, 298 K", "-5.25 kcal/mol"),
    ("S=C=S", "solvation free energy, 298 K", "-3.62 kcal/mol"),
    ("BrCCBr", "solvation free energy, 298 K", "-5.33 kcal/mol"),
    ("O=C=O", "solvation free energy, 298 K", "-0.61 kcal/mol"),
]

###

The reader will find reported solvation free energy, 298 K values listed item by item below.
assayName: solvent given as SMILES
conditionSet: in CCCCOC(C)=O
experimentalReadout: solvation free energy, 298 K

# querySmiles, observedResult
data = [
    ("O=C(O)c1cccc(Cl)c1", "-10.2 kcal/mol"),
    ("ClC(Cl)(Cl)Cl", "-4.26 kcal/mol"),
    ("O=c1c2ccccc2sc2ccccc12", "-12.4 kcal/mol"),
    ("CCCCCCCCCCCCCCCCCCCCCCCC", "-15.4 kcal/mol"),
    ("CN(C)C(=O)Nc1ccc(Cl)c(Cl)c1", "-14.5 kcal/mol"),
    ("Cc1ccccc1C(=O)O", "-8.76 kcal/mol"),
    ("OC(CCl)CCl", "-7.58 kcal/mol"),
    ("O=[N+]([O-])c1ccc(CCl)cc1", "-9.67 kcal/mol"),
]

###

assayName: solvent given as SMILES
conditionSet: in CCCC(C)CO

# querySmiles, solvation free energy, 298 K (kcal/mol)
measured = [
    ("c1ccc2c(c1)Cc1ccccc1O2", -9.42),
    ("c1ccc2c(c1)Nc1ccccc1S2", -12.8),
    ("O=c1c2ccccc2sc2ccccc12", -11.9),
    ("c1cc2c3c(cccc3c1)CC2", -8.55),
    ("c1ccc2c(c1)-c1cccc3cccc-2c13", -11.4),
    ("O=C1c2ccccc2C(=O)c2c(Cl)cccc21", -12.8),
]

###

assayName: solvent given as SMILES
conditionSet: in N#Cc1ccccc1
# solvation free energy, 298 K values compiled below

# querySmiles, solvation free energy, 298 K, kcal/mol
data = [
    ("FS(F)(F)(F)(F)F", 0.71),
    ("C=CCCC", -2.61),
    ("CCBr", -3.41),
    ("CCC(C)C", -2.21),
    ("C1CCCC1", -3),
    ("C=C", -0.45),
    ("O=S=O", -2.59),
    ("CC(C)(C)Cl", -3.15),
    ("ClCCl", -3.78),
]

Values were extracted from the CombiSolv-Exp solvation set (Vermeire and Green 2021).
